Tested System: FGFR1 (Homo sapiens, UniProt P11362)
Construct: purchased Eurofins DiscoverX KINOMEscan (scanTK)
Sequence (P11362 22-822): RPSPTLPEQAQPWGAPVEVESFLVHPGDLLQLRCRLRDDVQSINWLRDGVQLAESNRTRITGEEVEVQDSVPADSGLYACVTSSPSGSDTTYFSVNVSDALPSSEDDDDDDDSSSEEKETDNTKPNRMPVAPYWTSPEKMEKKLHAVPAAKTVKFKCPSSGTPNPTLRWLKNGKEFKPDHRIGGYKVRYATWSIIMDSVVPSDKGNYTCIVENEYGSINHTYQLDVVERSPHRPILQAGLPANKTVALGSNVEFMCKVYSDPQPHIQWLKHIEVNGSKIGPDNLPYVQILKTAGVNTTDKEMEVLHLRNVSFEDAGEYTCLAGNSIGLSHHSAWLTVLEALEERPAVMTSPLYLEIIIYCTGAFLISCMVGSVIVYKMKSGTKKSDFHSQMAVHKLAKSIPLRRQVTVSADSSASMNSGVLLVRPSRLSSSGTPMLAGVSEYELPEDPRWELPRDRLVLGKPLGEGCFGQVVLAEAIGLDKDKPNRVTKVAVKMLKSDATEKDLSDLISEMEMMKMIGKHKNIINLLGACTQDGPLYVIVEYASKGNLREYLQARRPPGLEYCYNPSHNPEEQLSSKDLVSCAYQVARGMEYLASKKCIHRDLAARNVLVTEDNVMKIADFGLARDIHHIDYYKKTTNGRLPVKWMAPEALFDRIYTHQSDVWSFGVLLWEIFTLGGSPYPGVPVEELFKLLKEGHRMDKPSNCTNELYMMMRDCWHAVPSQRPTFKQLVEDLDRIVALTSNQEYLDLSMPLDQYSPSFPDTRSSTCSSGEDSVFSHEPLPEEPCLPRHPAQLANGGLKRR
Assay Remarks: KINOMEscan ScanTK
Format: binding
Experimental Conditions: read-out: %Control @1000nM
Readout Name: remaining binding at 1 µM (%)
One number for each entry, in %.

Examples with their reported remaining binding at 1 µM follow.
- CNC(=O)c1cnc(S(C)(=O)=O)nc1N1CCCC(n2nc(-c3ccc(Oc4ccccc4)cc3)c3c(N)ncnc32)C1 (stereo not shown) [Compound 8d]: 78
- COC(=O)c1cnc(S(C)(=O)=O)nc1N1CCCC(n2nc(-c3ccc(Oc4ccccc4)cc3)c3c(N)ncnc32)C1 (stereo not shown) [Compound 8b]: 49
- C=CC(=O)N1CCC[C@@H](n2nc(-c3ccc(Oc4ccccc4)cc3)c3c(N)ncnc32)C1 [Compound 1g, Ibrutinib, reference compound]: 33

Next compound, please.
Short answer for CCOC(=O)c1cnc(S(C)(=O)=O)nc1N1CCC[C@@H](n2nc(-c3ccc(Oc4ccccc4)cc3)c3c(N)ncnc32)C1 [Compound 8c] : remaining binding at 1 µM was 86
